meta.source: ChEMBL document CHEMBL3232776

Tested on: Plasmodium falciparum
Assay: Antimalarial activity against chloroquine-resistant Plasmodium falciparum Dd2 infected in human erythrocytes assessed as parasite growth inhibition after 50 hrs by SYBR Green1 dye-based fluorescence assay
Assay type: functional, cell-based
Details: Dd2, 50 h
// boundary case: IC50 equal to 10 µM maps to False; strictly smaller maps to True

Use the examples below as a reference point.
CCOC(=O)c1cn(Cc2ccc(F)cc2)c2ccc3nc(-c4ccccc4)c(-c4ccccc4)nc3c2c1=O: True
CCOC(=O)C(=CNc1ccc2nc(-c3ccccc3)c(-c3ccccc3)nc2c1)C(=O)OCC: False

Q: Confirm or reject: IC50 of O=C(O)c1cn(C2CC2)c2cc(N3CCNCC3)c(F)cc2c1=O [CIPROFLOXACIN] lies strictly below 10 µM
A: False

Q: Confirm or reject: IC50 of "CCOC(=O)c1cnc2ccc3nc(-c4ccc(F)cc4)c(-c4ccc(F)cc4)nc3c2c1O" lies strictly below 10 µM
A: False

Q: Confirm or reject: IC50 of "CCOC(=O)c1cn(CC)c2ccc3nc(-c4ccccc4)c(-c4ccccc4)nc3c2c1=O" lies strictly below 10 µM
A: False

Q: Confirm or reject: IC50 of "CCOC(=O)c1cn(Cc2ccc(F)cc2)c2ccc3nc(-c4ccc(F)cc4)c(-c4ccc(F)cc4)nc3c2c1=O" lies strictly below 10 µM
A: True

Q: Confirm or reject: IC50 of "CCOC(=O)c1cn(CC(F)(F)F)c2ccc3nc(-c4ccc(F)cc4)c(-c4ccc(F)cc4)nc3c2c1=O" lies strictly below 10 µM
A: True
